Assay: Pharmacokinetic evaluation with intravenous or oral administration
Format: in vivo
Settings: rat, plasma; rats, oral administration, 2.5 mg/kg
endpoint-label: Tmax (min)

| compound | endpoint-label | assay-result |
| --- | --- | --- |
| Cc1ccc(-n2nccn2)c(C(=O)N2CCN(c3nc4ccc(F)cc4c(=O)[nH]3)CCC2C)c1 (stereo not shown) | Tmax | 20 |

====

Assay: Pharmacokinetic evaluation with intravenous or oral administration
Format: in vivo
Conditions: rat, plasma; rats, oral administration, 2.5 mg/kg
endpoint-label: AUC(0-inf) (ng·h/mL)

| compound | endpoint-label | units-label | assay-result |
| --- | --- | --- | --- |
| Cc1ccc(-n2nccn2)c(C(=O)N2CCN(c3nc4ccc(F)cc4c(=O)[nH]3)CCC2C)c1 (stereo not shown) [Example 2] | AUC(0-inf) | ng·h/mL | 1780 |

====

Test: Pharmacokinetic evaluation with intravenous or oral administration
Format: in vivo
Conditions: rat, plasma; rats, oral administration, 2.5 mg/kg

| compound | units-label | Cmax |
| --- | --- | --- |
| Cc1ccc(-n2nccn2)c(C(=O)N2CCN(c3nc4ccc(F)cc4c(=O)[nH]3)CCC2C)c1 (stereo not shown) | ng/mL | 1940 |

====

Assay: Pharmacokinetic evaluation with intravenous or oral administration
Type: in vivo
Conditions: rat, plasma; rats, intravenous administration, 1 mg/kg
endpoint-label: AUC(0-t) (ng·h/mL)

| molecule | assay-result |
| --- | --- |
| Cc1ccc(-n2nccn2)c(C(=O)N2CCN(c3nc4ccc(Cl)cc4c(=O)[nH]3)CCC2C)c1 (stereo not drawn) | 1730 |
| Cc1ccc(-n2nccn2)c(C(=O)N2CCN(c3nc4ccc(F)cc4c(=O)[nH]3)CCC2C)c1 (stereo not drawn) | 865 |
| O=C(c1ccccc1-n1nccn1)N1CCCN(c2nc3ccc(Cl)cc3c(=O)[nH]2)CC1 | 3450 |

====

Items are presented alongside their recorded AUC(0-inf).
Assay: Pharmacokinetic evaluation with intravenous or oral administration
Type: in vivo
Conditions: rat, plasma; rats, intravenous administration, 1 mg/kg
endpoint-label: AUC(0-inf) (µg·h/mL)

| compound | assay-result |
| --- | --- |
| Cc1ccc(-n2nccn2)c(C(=O)N2CCN(c3nc4ccc(Cl)cc4c(=O)[nH]3)CCC2C)c1 (stereo not drawn) [Example 6] | 1.74 |
| Cc1ccc(-n2nccn2)c(C(=O)N2CCN(c3nc4ccc(F)cc4c(=O)[nH]3)CCC2C)c1 (stereo not drawn) [Example 2] | 0.866 |
| O=C(c1ccccc1-n1nccn1)N1CCCN(c2nc3ccc(Cl)cc3c(=O)[nH]2)CC1 [Example 7] | 3.7 |

====

Experiment: Pharmacokinetic evaluation with intravenous or oral administration
Format: in vivo
Conditions: rat, plasma; rats, oral administration, 5 mg/kg

| compound | AUC(0-t) (ng·h/mL) |
| --- | --- |
| O=C(c1ccccc1-n1nccn1)N1CCCN(c2nc3ccc(Cl)cc3c(=O)[nH]2)CC1 | 14300 |
| Cc1ccc(-n2nccn2)c(C(=O)N2CCN(c3nc4ccc(Cl)cc4c(=O)[nH]3)CCC2C)c1 (centres unmarked) | 6800 |

====

Assay: Pharmacokinetic evaluation with intravenous or oral administration
Assay type: in vivo
Settings: rat, plasma; rats, intravenous administration, 1 mg/kg
endpoint-label: Tmax (min)

| molecule | assay-result |
| --- | --- |
| O=C(c1ccccc1-n1nccn1)N1CCCN(c2nc3ccc(Cl)cc3c(=O)[nH]2)CC1 | 4.98 |
| Cc1ccc(-n2nccn2)c(C(=O)N2CCN(c3nc4ccc(F)cc4c(=O)[nH]3)CCC2C)c1 (stereo not drawn) | 4.98 |
| Cc1ccc(-n2nccn2)c(C(=O)N2CCN(c3nc4ccc(Cl)cc4c(=O)[nH]3)CCC2C)c1 (stereo not drawn) | 4.98 |

Hey, just so you know, these numbers are from patent US10196383B2.
